Target: rat insulin receptor (INSR) on CHOK1 cells (rat, UniProt P15127 27-1383)
Test: cell-based or functional assay
Experimental Endpoint: EC50 (nM), pAKT signaling assay
Express the result in nM but write the number alone.

1. XPA.15.247.2.018 IgG (antibody, V domains shown, Tested as IgG; also called XPA.15.247.2.018 antibody) VH: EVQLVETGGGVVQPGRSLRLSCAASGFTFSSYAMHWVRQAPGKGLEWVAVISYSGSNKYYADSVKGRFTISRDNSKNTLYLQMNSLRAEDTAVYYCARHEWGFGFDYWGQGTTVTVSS VL: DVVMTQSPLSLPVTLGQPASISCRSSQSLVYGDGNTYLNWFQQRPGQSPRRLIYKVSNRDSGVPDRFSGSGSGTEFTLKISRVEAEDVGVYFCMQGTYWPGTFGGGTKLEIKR	0.4

Proceeding to the next binder to report its EC50 (nM), pAKT signaling assay.
// XPA.15.247.2.011 Fab (Fab, V domains shown, Fab; also called XPA.15.247.011) VH: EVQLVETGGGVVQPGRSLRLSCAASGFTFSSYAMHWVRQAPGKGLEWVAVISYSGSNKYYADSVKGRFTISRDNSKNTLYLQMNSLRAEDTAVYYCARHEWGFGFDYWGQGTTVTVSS VL: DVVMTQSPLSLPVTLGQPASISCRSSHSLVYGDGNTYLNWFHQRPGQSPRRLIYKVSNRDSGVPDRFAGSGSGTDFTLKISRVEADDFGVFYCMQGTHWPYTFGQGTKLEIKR : EC50 (nM), pAKT signaling assay value = 7.8
